These entries and their values trace back to ChEMBL document CHEMBL1201862.

molecular target: Endoribonuclease toxin MazF (Escherichia coli K-12, UniProt P0AE70); experiment: fluorescent RNA oligo signal without MazF, dose response, counter-screen for MazEF activator project, biochemical, fluorescence, single-stranded RNase substrate (AID 588502); format: functional
Sequence (P0AE70 whole entry): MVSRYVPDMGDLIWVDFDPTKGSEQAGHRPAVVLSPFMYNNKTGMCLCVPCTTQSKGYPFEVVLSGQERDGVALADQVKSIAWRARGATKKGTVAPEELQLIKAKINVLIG
Active and inactive are the calls of the source.
measured parameter: EC50

Check out these entries, answers already filled in.
- smiles record: "Cc1[nH][nH]c(=O)c1C(c1c(C)[nH][nH]c1=O)c1cn(Cc2ccccc2Cl)c2ccccc12"
  measurement target: "Endoribonuclease toxin MazF (Escherichia coli K-12, UniProt P0AE70)"
  result: "> 99 µM (inactive)"
- smiles record: "CCOC(=O)c1ccc(CC(=O)c2oc3cc(O)ccc3c2C)o1"
  measurement target: "Endoribonuclease toxin MazF (Escherichia coli K-12, UniProt P0AE70)"
  result: "81.2 µM (inactive)"

Could you now consider this next compound?
# input Reported EC50 for Endoribonuclease toxin MazF (Escherichia coli K-12, UniProt P0AE70), given Cc1ccc(NC(=O)c2ccc(NCc3ccco3)c([N+](=O)[O-])c2)cc1Cl ?
# output > 99 µM (inactive)

* * *

// Cytochrome P450 3A4 (Homo sapiens, UniProt P08684) AC50 records

- compound: "CS(=O)(=O)N1CCC[C@@]2(CCN(Cc3nccs3)C2)C1"
  AC50: "12.6 µM (inconclusive)"
- compound: "CC(C)C(=O)N1C2CCC1CC(O)(c1ccc(F)cc1)C2 (stereo not given)"
  AC50: "22.4 µM (inconclusive)"
- compound: "CN(C)c1ncnc2ccc(-c3ccccc3C(F)(F)F)cc12"
  AC50: "10 µM (inconclusive)"
- compound: "CCc1cc2c(nc1CC)CCN(CC/C(C)=N/OC[C@@H](O)COCc1ccco1)C2"
  AC50: "3.16 µM (inconclusive)"

Consider the additional compound presented here.
# input Reported AC50 for CCOC(=O)C1=C(N)n2c(s/c(=C\c3ccco3)c2=O)=C(C(=O)OCC)C1c1ccco1 (stereo not given) : what is it?
# output 28.2 µM (inconclusive)

* * *

biological target: UniProt P33261; test: Cytochrome panel assay with activity outcomes. Panel member name: p450-cyp2c19 Compounds with AC50 equal or less than 10 uM are considered active; type: functional; details: read-out: AC50
Sequence (P33261 whole entry): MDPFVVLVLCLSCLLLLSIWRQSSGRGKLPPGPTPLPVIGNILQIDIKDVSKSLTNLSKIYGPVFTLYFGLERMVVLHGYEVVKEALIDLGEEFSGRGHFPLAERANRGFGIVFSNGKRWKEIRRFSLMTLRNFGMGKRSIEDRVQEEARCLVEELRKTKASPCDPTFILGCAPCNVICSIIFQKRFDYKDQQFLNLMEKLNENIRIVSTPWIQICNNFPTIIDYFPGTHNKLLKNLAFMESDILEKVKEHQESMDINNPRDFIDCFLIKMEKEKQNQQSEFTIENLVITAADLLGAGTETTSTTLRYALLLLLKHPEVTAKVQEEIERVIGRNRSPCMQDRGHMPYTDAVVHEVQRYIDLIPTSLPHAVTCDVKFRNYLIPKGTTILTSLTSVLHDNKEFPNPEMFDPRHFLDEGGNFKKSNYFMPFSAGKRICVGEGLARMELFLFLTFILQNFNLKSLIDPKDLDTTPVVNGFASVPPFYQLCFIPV
Please go through the items and note down their AC50.

- compound: "O=C(Nc1cccc([N+](=O)[O-])c1)c1ccc(CSc2ccccc2)cc1"
  AC50: "14.1 µM (inconclusive)"
- compound: "Cc1ccc(C(=O)Cn2nnc3c(sc4nc5c(c(-c6ccccc6)c43)CCC5)c2=O)cc1"
  AC50: "25.1 µM (inconclusive)"
- compound: "COc1ccc(COC2OC[C@]3(C)[C@H]4C5=C(CN3C(=O)OC(C)(C)C)[C@H](C)C(CO)C(CO)C5CC[C@@H]24)cc1 (some centres not stated)"
  AC50: "39.8 µM (inconclusive)"
- compound: "COCCn1c(C(=O)N2CCCC2)cc2c1C[C@H]1CN(C(=O)c3ccccc3)[C@@](Cc3ccc(OC)cc3)(C(=O)OC)[C@@H]21"
  AC50: "39.8 µM (inconclusive)"
- compound: "CC(C)C(=O)N1C2CCC1CC(O)(c1ccc(F)cc1)C2 (configuration not stated)"
  AC50: "20 µM (inconclusive)"
- compound: "CCN1C(=O)/C(=C2\\SC(=S)N(CCCOC)C2=O)c2ccccc21"
  AC50: "11.2 µM (inconclusive)"
- compound: "O=C(O)c1ccccc1C(=O)NNc1ccc(Cl)cc1"
  AC50: "5.01 µM (inconclusive)"
- compound: "O=c1cc(N2CCN(c3ccccc3)CC2)[nH]c(=O)n1C1CCCCC1"
  AC50: "3.16 µM (inconclusive)"
- compound: "Cn1cccc1C(=O)N1CCC[C@@]2(CCN(Cc3cc(C(F)(F)F)cc(C(F)(F)F)c3)C2)C1"
  AC50: "39.8 µM (inconclusive)"
- compound: "O=C(CCCC1=NS(=O)(=O)c2ccccc2N1)N1CCC2(CC1)OCCO2"
  AC50: "17.8 µM (inconclusive)"

Below is a list of compounds. For each, state its recorded AC50.
1. COc1ccc(S(=O)(=O)NCc2ccc(C(=O)N3CCN(c4ccccn4)CC3)cc2)cc1
2. CN1CCN(C(=O)c2ccc(COc3ccc(C(C)(C)C)cc3)o2)CC1

# output
["7.94 µM (inconclusive)", "25.1 µM (inconclusive)"]
